Catalogue of binding signal values
Molecular target: T1, UNK ZnF1-3 (human, UniProt Q9C0B0 31-174)
T1 sequence: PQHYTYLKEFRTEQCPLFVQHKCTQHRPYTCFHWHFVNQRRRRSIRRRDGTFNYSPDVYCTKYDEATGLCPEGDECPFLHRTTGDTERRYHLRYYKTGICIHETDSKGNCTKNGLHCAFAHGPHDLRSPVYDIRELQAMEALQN
Assay: nsRBNS (natural sequence RNA bind-n-seq); RBNS binding buffer (assumed for nsRBNS): 25 mM Tris pH 7.5, 150 mM KCl, 3 mM MgCl2, 0.01% Triton X-100, 500 ug/ml BSA, 20 U/ml SUPERase-In, 4 C; UNK is unkempt and MSI1 is Musashi-1; names of the RNAs are library labels; protein concentration not given here; high values mean tight binding
Whole data set: some 24,000 sequences, median “enrichment r” near 0.99, cut for the highest 2% near 3.7. This excerpt belongs to a sample that is enriched for the highest values.
Please respond with the number in enrichment R and leave the unit unwritten.

Use these answered entries as a reference point.
Quick one: binding signal of chr2:120842339:120842340:+_ENSMUSG00000023572_ENSMUST00000060455|mus_mus|FALSE|FALSE (ssRNA) RNA: GGGAGUUCUACAGUCCGACGAUCCUUAAGGACAGAGGCUGCCUUUCUAUCGAGCAAACACCCUGUCAAAGCUCCACUUCUAAAAGCAGACGUUAAAAAAACUUAAAAAAUAAAUAGGUAAAGCAGACACUGGAUCGUGGGUGUCAACAGAGGAUUGAGCAUCA ?
5.28

# repeat for chr2:120842339:120842340:+_ENSMUSG00000023572_ENSMUST00000060455|mus_mus|motif|central (ssRNA) RNA: GGGAGUUCUACAGUCCGACGAUCCUUAAGGACAGAGGCUGCCUUUCUAUCGAGCAAACACCCUGUCAAAGCUCCACUUCGGAAAGCAGACGUUAAAAAAACUUAAAAAAUAAAUAGGUAAAGCAGACACUGGAUCGUGGGUGUCAACAGAGGAUUGAGCAUCA
3.71

Next:
Quick one: binding signal of 104620154_104620274_4085_CDS_ENSMUSG00000074994_ENSMUST00000117237|mouse|control|control (ssRNA) RNA: GGGAGUUCUACAGUCCGACGAUCACCUCCACUUUCAAUAUUUUCCUCAUCUGUAAAACCUUCUAUUGCAACUGUGUCCUGUCCUUUUGCCAACUGGUCUGAAGGAAGACUAUCAAGUUCGAUGGCUGUGGGGGAUUCUGUGGACAACAGAGGAUUGAGCAUCA ?
0.848
